# SYSTEM: ZAP-70 (Homo sapiens)
# Construct: endogenous in cells; host or cells: cell lysate
# ASSAY_TEXT: ZAP-70 kinobeads assay
# Type: binding
# SETUP_CONDITIONS: cell lysate, affinity matrix with immobilized aminopyrido-pyrimidine ligand 24, dot blot detection
IC50 values, listed per item

Guide cases for IC50, answers given:
>  <COMPOUND>
COc1cc(Nc2ncc(F)c(Nc3cccc(C)c3N(CCC(N)=O)S(C)(=O)=O)n2)cc(OC)c1OC [Example 23]

>  <OBSERVED_VALUE>
1000 to 10000 nM

$$$$
>  <COMPOUND>
CS(=O)(=O)N(CCN1CCOCC1)c1ccccc1Nc1nc(Nc2cccc(O)c2)ncc1F [Example 32]

>  <OBSERVED_VALUE>
1000 to 10000 nM

$$$$
>  <COMPOUND>
COc1cc(Nc2ncc(F)c(Nc3cccc(C)c3N(CCCC#N)S(C)(=O)=O)n2)cc(OC)c1OC [Example 24]

>  <OBSERVED_VALUE>
1000 to 10000 nM

$$$$
>  <COMPOUND>
COc1cc(Nc2ncc(F)c(Nc3cccc(C)c3N(CCCNC(C)=O)S(C)(=O)=O)n2)cc(OC)c1OC [Example 27]

>  <OBSERVED_VALUE>
100 to 1000 nM

$$$$
>  <COMPOUND>
COc1ccc(Nc2ncc(Cl)c(Nc3ccc(OC)cc3N(CCNC=O)S(C)(=O)=O)n2)c(OC)c1 [Example 11]

>  <OBSERVED_VALUE>
100 to 1000 nM

$$$$
>  <COMPOUND>
COc1ccc(Nc2nc(Nc3cc(OC)c(OC)c(OC)c3)ncc2Cl)c(N(CC#N)S(C)(=O)=O)c1 [Example 6]

>  <OBSERVED_VALUE>
≤ 100 nM

$$$$

Next up:
Dear colleague, I am looking for the recorded IC50 of the following compound: COc1ccc(Nc2nc(Nc3cc(OC)c(OC)c(OC)c3)ncc2Cl)c(N(CCNC=O)S(C)(=O)=O)c1 [Example 8]
≤ 100 nM

* * *

# SYSTEM: ZAP-70 (Homo sapiens, UniProt P43403)
# Construct: endogenous in cells; host or cells: cell lysate
# Sequence (P43403 1-619): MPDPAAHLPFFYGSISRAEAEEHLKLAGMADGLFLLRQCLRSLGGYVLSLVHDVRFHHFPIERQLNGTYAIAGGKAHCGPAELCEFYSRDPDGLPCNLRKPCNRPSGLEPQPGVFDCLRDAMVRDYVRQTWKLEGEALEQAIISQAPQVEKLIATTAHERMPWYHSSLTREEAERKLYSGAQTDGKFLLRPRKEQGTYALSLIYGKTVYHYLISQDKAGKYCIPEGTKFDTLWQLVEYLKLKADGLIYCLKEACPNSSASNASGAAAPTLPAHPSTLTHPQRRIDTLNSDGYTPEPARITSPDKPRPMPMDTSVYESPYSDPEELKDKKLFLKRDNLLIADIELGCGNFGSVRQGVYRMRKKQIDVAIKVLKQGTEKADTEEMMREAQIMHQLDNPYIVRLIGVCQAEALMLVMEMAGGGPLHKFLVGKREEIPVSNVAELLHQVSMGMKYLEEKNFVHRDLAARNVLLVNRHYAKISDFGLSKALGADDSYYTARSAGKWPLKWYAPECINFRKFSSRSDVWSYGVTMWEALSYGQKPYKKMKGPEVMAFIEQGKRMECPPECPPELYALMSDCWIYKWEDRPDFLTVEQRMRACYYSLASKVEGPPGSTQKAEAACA
# ASSAY_TEXT: ZAP-70 kinobeads assay
# Format: binding
# SETUP_CONDITIONS: cell lysate, affinity matrix with immobilized aminopyrido-pyrimidine ligand 24, dot blot detection
EXPERIMENTAL_ENDPOINT: IC50

Below: 3 compounds and their reported IC50.
>  <STRUCTURE_AS_SMILES>
COC(=O)CCN(c1c(C)cccc1Nc1nc(Nc2cc(OC)c(OC)c(OC)c2)ncc1F)S(C)(=O)=O

>  <SYSTEM>
ZAP-70 (Homo sapiens, UniProt P43403)

>  <IC50>
1 to 10 µM

$$$$
>  <STRUCTURE_AS_SMILES>
COc1cc(Nc2ncc(F)c(Nc3cccc(C)c3N(CCO)S(C)(=O)=O)n2)cc(OC)c1OC

>  <SYSTEM>
ZAP-70 (Homo sapiens, UniProt P43403)

>  <IC50>
1 to 10 µM

$$$$
>  <STRUCTURE_AS_SMILES>
COc1cc(Nc2ncc(F)c(Nc3cccc(C)c3N(CCNC=O)S(C)(=O)=O)n2)cc(OC)c1OC

>  <SYSTEM>
ZAP-70 (Homo sapiens, UniProt P43403)

>  <IC50>
0.1 to 1 µM

$$$$

Notebook: pull reported IC50 for ZAP-70 (Homo sapiens, UniProt P43403), entry COc1ccc(Nc2nc(Nc3cc(OC)c(OC)c(OC)c3)ncc2Cl)c(N(Cc2cnc[nH]2)S(C)(=O)=O)c1
0.1 to 1 µM

* * *

Examples of compounds with documented pIC50 follow.
# SYSTEM: ZAP-70 (Homo sapiens)
# Construct: endogenous in cells
# ASSAY_TEXT: ZAP-70 kinobeads assay
# SETUP_CONDITIONS: cell lysate, affinity matrix with immobilized aminopyrido-pyrimidine ligand 24, dot blot detection
pIC50: −log10 of the molar value.

I am curious: what pIC50 value has been reported for COC(=O)CN(c1c(C)cccc1Nc1nc(Nc2cc(OC)c(OC)c(OC)c2)ncc1F)S(C)(=O)=O ?
5.00 to 6.00

Now the compound COc1cc(Nc2ncc(Cl)c(Nc3ccccc3N(CCNC=O)S(C)(=O)=O)n2)cc(OC)c1OC
≥ 7.00

COc1cc(Nc2ncc(F)c(Nc3cccc(C)c3N(CC(N)=O)S(C)(=O)=O)n2)cc(OC)c1OC ?
5.00 to 6.00

Note, next up: COc1ccc(Nc2nc(Nc3cc(OC)c(OC)c(OC)c3)ncc2Cl)c(N(CCCNC(C)=O)S(C)(=O)=O)c1
≥ 7.00

What do you get for COc1ccc(Nc2nc(Nc3cc(OC)c(OC)c(OC)c3)ncc2Cl)c(N(CCN)S(C)(=O)=O)c1 ?
≥ 7.00

Input COc1cc(Nc2ncc(F)c(Nc3cccc(C)c3N(CCCN)S(C)(=O)=O)n2)cc(OC)c1OC
6.00 to 7.00

Record: COc1cc(Nc2ncc(F)c(Nc3cccc(C)c3N(CCCNC=O)S(C)(=O)=O)n2)cc(OC)c1OC
6.00 to 7.00

Please give the result for COc1ccc(Nc2nc(Nc3ccnn3C)ncc2Cl)c(N(C[C@H]2CCC(=O)N2)S(C)(=O)=O)c1 too.
5.00 to 6.00

* * *

// reported IC50 for each item listed
# SYSTEM: ZAP-70 (Homo sapiens, UniProt P43403)
# Construct: endogenous in cells
# ASSAY_TEXT: ZAP-70 kinobeads assay
# SETUP_CONDITIONS: cell lysate, affinity matrix with immobilized aminopyrido-pyrimidine ligand 24, dot blot detection

Below are worked cases with known answers.
>  <MOLECULE>
COc1cc(Nc2ncc(F)c(Nc3cccc(C)c3N(CCN)S(C)(=O)=O)n2)cc(OC)c1OC [Example 19]

>  <EXPERIMENTAL_ENDPOINT>
IC50

>  <OBSERVED_VALUE>
100 to 1000 nM

$$$$
>  <MOLECULE>
COc1ccc(Nc2nc(Nc3cc(OC)c(OC)c(OC)c3)ncc2Cl)c(N(C[C@@H]2CCC(=O)N2)S(C)(=O)=O)c1 [Example 4]

>  <EXPERIMENTAL_ENDPOINT>
IC50

>  <OBSERVED_VALUE>
≤ 100 nM

$$$$
>  <MOLECULE>
COc1ccc(Nc2nc(Nc3cc(OC)c(OC)c(OC)c3)ncc2Cl)c(N(CCCNC=O)S(C)(=O)=O)c1 [Example 12]

>  <EXPERIMENTAL_ENDPOINT>
IC50

>  <OBSERVED_VALUE>
≤ 100 nM

$$$$
>  <MOLECULE>
COc1cc(Nc2ncc(F)c(Nc3cccc(C)c3N(CCC#N)S(C)(=O)=O)n2)cc(OC)c1OC [Example 16]

>  <EXPERIMENTAL_ENDPOINT>
IC50

>  <OBSERVED_VALUE>
100 to 1000 nM

$$$$
>  <MOLECULE>
COc1ccc(Nc2nc(Nc3cc(OC)c(OC)c(OC)c3)ncc2Cl)c(N(CCNC(C)=O)S(C)(=O)=O)c1 [Example 30]

>  <EXPERIMENTAL_ENDPOINT>
IC50

>  <OBSERVED_VALUE>
≤ 100 nM

$$$$
>  <MOLECULE>
COc1cc(Nc2ncc(F)c(Nc3cccc(C)c3N(CCNC(C)=O)S(C)(=O)=O)n2)cc(OC)c1OC [Example 26]

>  <EXPERIMENTAL_ENDPOINT>
IC50

>  <OBSERVED_VALUE>
100 to 1000 nM

$$$$

The record that follows has no IC50 shown yet.
Which IC50 reading was recorded for the molecule COc1ccc(Nc2nc(Nc3cc(F)c(OC)cc3OC)ncc2Cl)c(N(CCN)S(C)(=O)=O)c1 [Example 10] ?
100 to 1000 nM
